// reported growth for each item listed
# Test system: SF-268 CNS
# experimental protocol: NCI-60 one-dose screen, 48 h (100 = growth as untreated, 0 = no growth, -100 = all killed)
# reported conditions: 10 µM unless noted
Compounds without any hit were thinned out: in the full panel of roughly 83,000, 20% have a hit.
Numbers only; they are read as %.

compound: CC1(C)C(C(=O)c2cn(CCCCF)c3ccccc23)C1(C)C
experimental target: SF-268 CNS
growth, %: 98.8
--
compound: Cn1cc(-c2csc(-c3cn(CCN4CCOCC4)c4ccccc34)n2)c2cccnc21
experimental target: SF-268 CNS
growth, %: 79.8
--
compound: CN(C)C1C(=O)C(C(N)=O)=C(O)C2(O)C(=O)C3=C(O)c4c(O)cccc4C(C)(O)C3CC12.[Cl][Sb]([Cl])[Cl] (stereo unspecified)
experimental target: SF-268 CNS
growth, %: 29.7
--
compound: COc1ccc(-n2c(C)nc3cc(OC)c(OC)cc3c2=O)cc1OC
experimental target: SF-268 CNS
growth, %: 97.2
--
compound: O=[N+]([O-])CC(O)C(Cl)(Cl)Cl (stereo unspecified)
experimental target: SF-268 CNS
growth, %: 101
--
compound: CCOP(=O)(Nc1ccc2c(c1)/C(=N/NC(N)=S)c1ccccc1-2)OCC
experimental target: SF-268 CNS
growth, %: 98
--
compound: O=C1C2C(C(=O)[N]1[Hg][c]1cccs1)C1(Cl)C(Cl)=C(Cl)C2(Cl)C1(Cl)Cl (stereo unspecified)
experimental target: SF-268 CNS
growth, %: 32.3
--
compound: Fc1ccc2c(c1)c(-c1nc(-c3c[nH]c4ncccc34)cs1)cn2CCCCN1CCCCC1
experimental target: SF-268 CNS
growth, %: -77.5
--
compound: COC1OC(CO)C(O)C(O)[CH]1[Hg][O]C(C)=O (stereo unspecified)
experimental target: SF-268 CNS
growth, %: 97.6
--
compound: CCC(=O)Nc1ccc(Cl)c(Cl)c1
experimental target: SF-268 CNS
growth, %: 105

// fetch SF-268 CNS growth for `COC(=O)[C@@]1(C)CC[C@]2(C)CC[C@]3(C)C4=CC=C5C(=CC(=O)C(O)=C5C)[C@]4(C)CC[C@@]3(C)[C@@H]2C1`
-83.2

And then `O=C(Nc1ccc(Br)cc1)c1cc(Br)cc(Br)c1O` , what is it?
32.3

And for CC(=O)OC1CCC2(C)C(CCC3C2CC(=O)C2(C)C3CC(Sc3ccc(N(CCCl)CCCl)cc3)C2C(C)=O)C1 (stereo unspecified) ?
85.9

Next compound: CC1[C@H](C)OC(=O)CC(O)CC(O)CC(O)CCC(O)C(O)C[C@]2(O)CC(O)C(C(=O)O)C(CC(OC3O[C@H](C)[C@@H](O)[C@H](N)[C@@H]3O)/C=C/C=C/C=C/C=C/CC/C=C/C=C/[C@H](C)[C@H]1O)O2 (stereo partly specified)
109

// next record `Cn1cc(-c2csc(-c3cn(CCN4CCOCC4)c4ccc(F)cc34)n2)c2cccnc21`
41.7

Now the same for CN1CCCCC1C(C)(O)c1ccccc1 (stereo unspecified)
101
